Overview of recorded IC50 for various binders
measured.target: DAEFRH-peptide-specific monoclonal antibody (Example 1)
experimental.protocol: inhibition ELISA, competitor plate-bound DAEFRH-C-BSA
measured.parameter: IC50

binder="SWEFRTC [Peptide 4002]" result="< 0.4 µg/mL"
binder="EAEFRGC [Peptide 3006]" result="< 0.5 µg/mL"
binder="DRELKIC [Peptide 1237]" result="> 5 µg/mL"
binder="DKELKIC [Peptide 1236]" result="> 5 µg/mL"
